experimental_target: full-length H1 A/California/07/2009 HA expressed on 293T cells (influenza A virus A/California/07/2009 (H1N1))
assay_comment: flow cytometry, HA-expressing 293T

[
  {
    "binder": "C05 (antibody, V domains shown) VH: PVQLQESGGGLVQPGESLRLSCVGSGSSFGESTLSYYAVSWVRQAPGKGLEWLSIINAGGGDIDYADSVEGRFTISRDNSKETLYLQMTNLRVEDTGVYYCAKHMSMQQVVSAGWERADLVGDAFDVWGQGTMVTVSS VL: DIQLTQSPSSLSASVGDRVTLTCQASQDIRKFLNWYQQKPGKGPKLLIYDASNLQRGVPSRFSGGGSGTDFTLIISSLQPEDVGTYYCQQYDGLPFTFGGGTKVEIKR",
    "max. MFI (MFI)": 86
  }
]

Data credit: patent US20210070843A1
